MEASUREMENT DESCRIPTION: Plasma pharmacokinetics of CX-5461 (HPLC-MS/MS, non-compartmental)
Format: in vivo, human
CONDITION PARAMETERS: human, plasma, intravenous, 325 mg/m2, 325 mg/m2; Time 4; individual patients; read-out: Day 1 CX-5461 plasma concentration
EXPERIMENTAL READOUT: concentration at 4 h (ng/mL)
Express it in ng/mL; write the number only.

Could you tell me which concentration at 4 h is on file for Cc1cnc(CNC(=O)c2c(=O)c3ccc(N4CCCN(C)CC4)nc3n3c2sc2ccccc23)cn1 [CX-5461] ?
244

---

MEASUREMENT DESCRIPTION: Plasma pharmacokinetics of CX-5461 (HPLC-MS/MS, non-compartmental)
Format: in vivo, human
CONDITION PARAMETERS: human, plasma, intravenous, 475 mg/m2, B: 475 mg/m2; Time 72; individual patients; read-out: Day 1 CX-5461 plasma concentration
EXPERIMENTAL READOUT: concentration at 72 h (ng/mL)
Express it in ng/mL; write the number only.

Could you tell me which concentration at 72 h is on file for Cc1cnc(CNC(=O)c2c(=O)c3ccc(N4CCCN(C)CC4)nc3n3c2sc2ccccc23)cn1 [CX-5461] ?
219

---

MEASUREMENT DESCRIPTION: Plasma pharmacokinetics of CX-5461 (HPLC-MS/MS, non-compartmental)
Assay type: in vivo, human
CONDITION PARAMETERS: human, plasma, intravenous, 200 mg/m2, 200 mg/m2; Time 72; individual patients; read-out: Day 1 CX-5461 plasma concentration
Procedure: PK was assessed on all patients in the escalation phase. Venous blood samples were collected on treatment days 1, 8, and 15 (where applicable), and plasma CX-5461 was analyzed with HPLC-MS/MS (schedule details in Supplementary Table 3). PK parameters were calculated with non-compartmental methods. […] The protocol was amended to allow submission of a ctDNA sample and in a further amendment, a mandatory skin biopsy (pre-treatment and cycle 1 day 15) to study phototoxic effects. […]
EXPERIMENTAL READOUT: concentration at 72 h (ng/mL)
Express it in ng/mL; write the number only.

Could you tell me which concentration at 72 h is on file for Cc1cnc(CNC(=O)c2c(=O)c3ccc(N4CCCN(C)CC4)nc3n3c2sc2ccccc23)cn1 [CX-5461] ?
31.4

---

MEASUREMENT DESCRIPTION: Plasma pharmacokinetics of CX-5461 (HPLC-MS/MS, non-compartmental)
Format: in vivo, human
CONDITION PARAMETERS: human, plasma, intravenous, 475 mg/m2, B: 475 mg/m2; Time 0.5; individual patients; read-out: Day 1 CX-5461 plasma concentration
EXPERIMENTAL READOUT: concentration at 0.5 h

Could you tell me which concentration at 0.5 h is on file for Cc1cnc(CNC(=O)c2c(=O)c3ccc(N4CCCN(C)CC4)nc3n3c2sc2ccccc23)cn1 [CX-5461] ?
890 ng/mL

---

MEASUREMENT DESCRIPTION: Plasma pharmacokinetics of CX-5461 (HPLC-MS/MS, non-compartmental)
Type: in vivo, human
CONDITION PARAMETERS: human, plasma, intravenous, 325 mg/m2, 325 mg/m2; Time 0; individual patients; read-out: Day 1 CX-5461 plasma concentration
EXPERIMENTAL READOUT: concentration at 0 h (ng/mL)
Express it in ng/mL; write the number only.

Could you tell me which concentration at 0 h is on file for Cc1cnc(CNC(=O)c2c(=O)c3ccc(N4CCCN(C)CC4)nc3n3c2sc2ccccc23)cn1 ?
1310
